quantity: melting point

Known results for molecules:
                                   molecule  recorded_value
0  O=C(O)Cc1csc2cc(OCc3cccc4sc(-c5ccc(C(F)(F)F)cc5)nc34)ccc12   185 to 190 °C
1  CCc1cc(SCc2ccc3nc(-c4ccc(C(F)(F)F)cc4)sc3c2)ccc1OCC(=O)O   144 to 147 °C
2  Cc1cc(SC(C)c2ccc3nc(-c4ccc(C(F)(F)F)cc4)sc3c2)ccc1CCC(=O)O (racemic)   159 to 161 °C
3  Cc1cc(SCc2cccc3c2nc(-c2ccc(C(F)(F)F)cc2)n3C)ccc1CCC(=O)O   168 to 170 °C
4  O=C(O)Cc1csc2cc(SCc3ccnc4oc(-c5ccc(C(F)(F)F)cc5)nc34)ccc12   203 to 205 °C
5  Cc1cc(SCCc2cccc3sc(-c4ccc(C(F)(F)F)cc4)nc23)ccc1CCC(=O)O   118 to 120 °C

The reported value for `CCc1cc(SCc2cccc3[nH]c(-c4ccc(C(F)(F)F)cc4)cc23)ccc1OCC(=O)O` in terms of melting point is 174 to 176 °C

Entry `Cc1cc(SCc2cccc3[nH]c(-c4ccc(C(F)(F)F)cc4)nc23)ccc1OCC(=O)O` — recorded melting point = 238 to 240 °C (dec.)
